target: HIV-1 protease (wild-type, WT) (Human immunodeficiency virus type 1 group M subtype B, UniProt P04585); construct: purified HIV-1 protease (wild-type, WT); assay: biochemical; details: Table II; read-out: Ki
Listing: Ki of selected compounds
OBSERVABLE: Ki (nM)

1) CC(C)(C)NC(=O)N[C@@H](Cc1ccccc1)C[C@H](O)[C@H](Cc1ccccc1)NC(=O)c1ccccc1NC(=O)OCc1ccccn1 [AN-43]
1.05
2) O=C(Nc1ccccc1C(=O)N[C@@H](Cc1ccccc1)[C@@H](O)[C@@H](O)[C@H](Cc1ccccc1)NC(=O)c1cccc(O)c1)OCc1ccccc1 [DN-3]
5.9
3) CC(C)(C)OC(=O)N[C@@H](Cc1ccccc1)[C@@H](O)[C@@H](O)[C@H](Cc1ccccc1)NC(=O)c1ccccc1NC(=O)OCc1ccccn1 [DN-11]
0.45
4) O=C(Nc1ccccc1C(=O)N[C@@H](Cc1ccccc1)[C@@H](O)[C@@H](O)[C@H](Cc1ccccc1)NC(=O)c1cccc(O)c1)OCc1ccccn1 [DN-4]
1.77
